Target: hERG (Homo sapiens (Human), UniProt Q12809)
Sequence (Q12809 whole entry): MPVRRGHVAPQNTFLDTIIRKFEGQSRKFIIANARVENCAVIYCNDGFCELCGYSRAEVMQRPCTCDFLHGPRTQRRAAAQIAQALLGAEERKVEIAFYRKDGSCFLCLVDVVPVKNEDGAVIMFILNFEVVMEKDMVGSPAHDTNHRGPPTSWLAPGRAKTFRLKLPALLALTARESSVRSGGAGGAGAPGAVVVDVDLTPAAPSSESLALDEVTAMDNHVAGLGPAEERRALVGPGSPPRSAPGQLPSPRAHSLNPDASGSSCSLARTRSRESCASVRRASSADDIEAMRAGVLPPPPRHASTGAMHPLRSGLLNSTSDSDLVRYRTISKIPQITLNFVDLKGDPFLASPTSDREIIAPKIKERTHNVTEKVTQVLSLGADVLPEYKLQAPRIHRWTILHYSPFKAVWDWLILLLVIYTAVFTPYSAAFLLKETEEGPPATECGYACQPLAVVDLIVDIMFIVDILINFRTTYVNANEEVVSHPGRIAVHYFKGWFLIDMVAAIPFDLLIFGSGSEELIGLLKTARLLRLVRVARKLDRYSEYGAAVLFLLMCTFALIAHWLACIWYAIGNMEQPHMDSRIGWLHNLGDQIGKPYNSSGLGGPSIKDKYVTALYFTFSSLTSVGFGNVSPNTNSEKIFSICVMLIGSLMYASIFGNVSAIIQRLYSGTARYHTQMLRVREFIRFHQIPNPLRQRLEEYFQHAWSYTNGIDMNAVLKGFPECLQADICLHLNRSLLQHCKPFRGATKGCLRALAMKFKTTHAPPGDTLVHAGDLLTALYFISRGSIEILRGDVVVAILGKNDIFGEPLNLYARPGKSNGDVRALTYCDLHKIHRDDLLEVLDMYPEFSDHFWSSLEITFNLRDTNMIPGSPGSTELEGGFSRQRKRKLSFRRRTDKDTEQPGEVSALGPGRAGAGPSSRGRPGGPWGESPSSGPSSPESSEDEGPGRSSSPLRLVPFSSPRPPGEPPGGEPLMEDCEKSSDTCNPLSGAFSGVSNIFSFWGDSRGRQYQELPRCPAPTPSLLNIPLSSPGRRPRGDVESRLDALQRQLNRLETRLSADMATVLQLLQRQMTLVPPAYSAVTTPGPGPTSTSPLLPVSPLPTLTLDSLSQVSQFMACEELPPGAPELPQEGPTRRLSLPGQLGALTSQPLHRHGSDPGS
Assay: Patch clamp assay (hERG tail currents, whole-cell)
Type: cell-based
Conditions: 30 μM compound, hERG transfected HEK 293 cells
quantity_name: hERG % Remaining 30 μM

{"compound": "CC(C)N(C(=O)c1cc(F)ccc1Oc1cncnc1N1CC2(CCN(C[C@@H]3CC[C@@H](NS(=O)(=O)c4ccn(C)n4)CO3)CC2)C1)C(C)C [Compound 87]", "quantity_name": "hERG % Remaining 30 μM", "endpoint_value": "+++ (“+++” means ≥66%)"}
{"compound": "CC(C)N(C(=O)c1cc(F)ccc1Oc1cncnc1N1CC2(CCN(C[C@@H]3CC[C@@H](NS(=O)(=O)N4CCC4)CO3)CC2)C1)C1COC1 [Compound 248]", "quantity_name": "hERG % Remaining 30 μM", "endpoint_value": "+++ (“+++” means ≥66%)"}
{"compound": "CC(C)N(C(=O)c1cc(F)ccc1Oc1cncnc1N1CC2(CCN(C[C@@H]3CC[C@@H](NS(=O)(=O)N(C)C)CO3)CC2)C1)C1COC1 [Compound 249]", "quantity_name": "hERG % Remaining 30 μM", "endpoint_value": "+++ (“+++” means ≥66%)"}
{"compound": "CC(C)N(C(=O)c1cc(F)ccc1Oc1nncnc1N1CC2(CCN(C[C@@H]3CC[C@@H](NS(=O)(=O)N4CCC4)CO3)CC2)C1)C(C)C [Compound 199]", "quantity_name": "hERG % Remaining 30 μM", "endpoint_value": "+++ (“+++” means ≥66%)"}
{"compound": "CCN(C(=O)c1cc(F)ccc1Oc1cncnc1N1CC2(CCN(C[C@@H]3CC[C@@H](NS(=O)(=O)N4CCC[C@@H]4C)CO3)CC2)C1)C(C)C [Compound 201]", "quantity_name": "hERG % Remaining 30 μM", "endpoint_value": "+ (“+” means <33%)"}
{"compound": "CCN(C(=O)c1cc(F)ccc1Oc1cncnc1N1CC2(CCN(C[C@@H]3CC[C@@H](NS(=O)(=O)c4cnn(C)c4)CO3)CC2)C1)C(C)C [Compound 68]", "quantity_name": "hERG % Remaining 30 μM", "endpoint_value": "+++ (“+++” means ≥66%)"}
{"compound": "C[C@@H]1COC[C@@H](C)N1C(=O)c1cc(F)ccc1Oc1cncnc1N1CC2(CCN(C[C@@H]3CC[C@@H](NS(=O)(=O)NCC4CC4)CO3)CC2)C1 [Compound 158]", "quantity_name": "hERG % Remaining 30 μM", "endpoint_value": "+++ (“+++” means ≥66%)"}
{"compound": "CC(C)N(C(=O)c1cc(F)ccc1Oc1cncnc1N1CC2(CCN(C[C@@H]3CC[C@@H](NS(=O)(=O)C4CC4)CO3)CC2)C1)[C@@H]1CCOC1 [Compound 164]", "quantity_name": "hERG % Remaining 30 μM", "endpoint_value": "+++ (“+++” means ≥66%)"}
{"compound": "CC(C)N(CC(F)F)C(=O)c1cc(F)ccc1Oc1cncnc1N1CC2(CCN(C[C@@H]3CC[C@@H](NS(=O)(=O)N(C)C(C)C)CO3)CC2)C1 [Compound 101]", "quantity_name": "hERG % Remaining 30 μM", "endpoint_value": "+ (“+” means <33%)"}
{"compound": "C[C@@H]1COC[C@@H](C)N1C(=O)c1cc(F)ccc1Oc1cncnc1N1CC2(CCN(C[C@@H]3CC[C@@H](NS(=O)(=O)N(C)C)CO3)CC2)C1 [Compound 123]", "quantity_name": "hERG % Remaining 30 μM", "endpoint_value": "+++ (“+++” means ≥66%)"}
{"compound": "CC(C)N(C(=O)c1cc(F)ccc1Oc1cncnc1N1CC2(CCN(C[C@@H]3CC[C@@H](NS(=O)(=O)N(C)C)CO3)CC2)C1)[C@@H]1CCOC1 [Compound 167]", "quantity_name": "hERG % Remaining 30 μM", "endpoint_value": "+++ (“+++” means ≥66%)"}
{"compound": "CCN(CC)S(=O)(=O)N[C@@H]1CC[C@@H](CN2CCC3(CC2)CN(c2ncncc2Oc2ccc(F)cc2C(=O)N(C(C)C)[C@H]2CCOC2)C3)OC1 [Compound 175]", "quantity_name": "hERG % Remaining 30 μM", "endpoint_value": "+ (“+” means <33%)"}
{"compound": "CCN(C(=O)c1cc(F)ccc1Oc1cncnc1N1CC2(CCN(C[C@@H]3CC[C@@H](NS(=O)(=O)c4ccccc4Cl)CO3)CC2)C1)C(C)C [Compound 59]", "quantity_name": "hERG % Remaining 30 μM", "endpoint_value": "+ (“+” means <33%)"}
{"compound": "CC(C)N(C(=O)c1cc(F)ccc1Oc1cncnc1N1CC2(CCN(C[C@@H]3CC[C@@H](NS(=O)(=O)c4cnn(C)c4)CO3)CC2)C1)C1CC(F)(F)C1 [Compound 156]", "quantity_name": "hERG % Remaining 30 μM", "endpoint_value": "+++ (“+++” means ≥66%)"}
{"compound": "CCNS(=O)(=O)N[C@@H]1CC[C@@H](CN2CCC3(CC2)CN(c2ncnnc2Oc2ccc(F)cc2C(=O)N(C(C)C)C(C)C)C3)OC1 [Compound 198]", "quantity_name": "hERG % Remaining 30 μM", "endpoint_value": "+++ (“+++” means ≥66%)"}
{"compound": "Cc1c(S(=O)(=O)N[C@@H]2CC[C@@H](CN3CCC4(CC3)CN(c3ncncc3Oc3ccc(F)cc3C(=O)N(CC(F)F)C(C)C)C4)OC2)cnn1C [Compound 104]", "quantity_name": "hERG % Remaining 30 μM", "endpoint_value": "+++ (“+++” means ≥66%)"}
{"compound": "C[C@@H]1COC[C@H](C)N1C(=O)c1cc(F)ccc1Oc1cncnc1N1CC2(CCN(C[C@@H]3CC[C@@H](NS(=O)(=O)N4CCC4)CO3)CC2)C1 [Compound 161]", "quantity_name": "hERG % Remaining 30 μM", "endpoint_value": "+++ (“+++” means ≥66%)"}

====

Tested on: MV4-11 cells
Assay: Cell proliferation assay MV4;11 (CellTiter-Glo, 72 hours)
Format: cell-based
Conditions: Homo sapiens; MV4;11 leukemia cell line, 72 hours; read-out: MV4; 11 IC50
pIC50: −log10 of the molar value.
quantity_name: pIC50

{"compound": "CNS(=O)(=O)N[C@@H]1CC[C@@H](CN2CCC3(CC2)CN(c2ncncc2Oc2ccc(F)cc2C(=O)N(CC(F)F)C(C)C)C3)OC1", "system_tested": "MV4-11 cells", "endpoint_value": "> 7.00"}
{"compound": "CC(C)N(C(=O)c1cc(F)ccc1Oc1cncnc1N1CC2(CCN(C[C@@H]3CC[C@@H](NS(=O)(=O)N4CCOCC4)CO3)CC2)C1)C1CC(F)(F)C1", "system_tested": "MV4-11 cells", "endpoint_value": "> 7.00"}
{"compound": "CC(C)N(C(=O)c1cc(F)ccc1Oc1cncnc1N1CC2(CCN(C[C@@H]3CC[C@@H](NS(=O)(=O)N4CCC4)CO3)CC2)C1)C1CC(F)(F)C1", "system_tested": "MV4-11 cells", "endpoint_value": "> 7.00"}
{"compound": "CC(C)N(C(=O)c1cc(F)ccc1Oc1cncnc1N1CC2(CCN(C[C@@H]3CC[C@@H](NS(=O)(=O)C(C)C)CO3)CC2)C1)C1CC1", "system_tested": "MV4-11 cells", "endpoint_value": "> 7.00"}
{"compound": "CC(C)N(CC(F)F)C(=O)c1cc(F)ccc1Oc1cncnc1N1CC2(CCN(C[C@@H]3CC[C@@H](NS(=O)(=O)N(C)C(C)C)CO3)CC2)C1", "system_tested": "MV4-11 cells", "endpoint_value": "> 7.00"}
{"compound": "CCNS(=O)(=O)N[C@@H]1CC[C@@H](CN2CCC3(CC2)CN(c2ncncc2Oc2ccc(F)cc2C(=O)N(C(C)C)C(C)C)C3)OC1", "system_tested": "MV4-11 cells", "endpoint_value": "> 7.00"}
{"compound": "CC(C)N(C(=O)c1cc(F)ccc1Oc1cncnc1N1CC2(CCN(C[C@@H]3CC[C@@H](NS(=O)(=O)N4CC5(CCOC5)C4)CO3)CC2)C1)C(C)C", "system_tested": "MV4-11 cells", "endpoint_value": "> 7.00"}
{"compound": "CC(C)N(C(=O)c1cc(F)ccc1Oc1cncnc1N1CC2(CCN(C[C@@H]3CC[C@@H](NS(=O)(=O)C4COC4)CO3)CC2)C1)C(C)C", "system_tested": "MV4-11 cells", "endpoint_value": "> 7.00"}
{"compound": "CC(C)N(CC(F)(F)F)C(=O)c1cc(F)ccc1Oc1cncnc1N1CC2(CCN(C[C@@H]3CC[C@@H](NS(=O)(=O)N4CCOCC4)CO3)CC2)C1", "system_tested": "MV4-11 cells", "endpoint_value": "> 7.00"}
{"compound": "CNS(=O)(=O)N[C@H]1CC[C@H](CN2CCC3(CC2)CN(c2ncncc2Oc2ccc(F)cc2C(=O)N(C(C)C)C2CC2)C3)OC1 (stereo in doubt)", "system_tested": "MV4-11 cells", "endpoint_value": "> 7.00"}
{"compound": "COCCN(C(=O)c1cc(F)ccc1Oc1cncnc1N1CC2(CCN(C[C@@H]3CC[C@@H](NS(=O)(=O)c4ccccc4)CO3)CC2)C1)C(C)C", "system_tested": "MV4-11 cells", "endpoint_value": "> 7.00"}
{"compound": "C[C@@H]1COC[C@@H](C)N1C(=O)c1cc(F)ccc1Oc1cncnc1N1CC2(CCN(C[C@@H]3CC[C@@H](NS(=O)(=O)NCC4CC4)CO3)CC2)C1", "system_tested": "MV4-11 cells", "endpoint_value": "> 7.00"}
{"compound": "CC(C)N(C(=O)c1cc(F)ccc1Oc1cncnc1N1CC2(CCN(C[C@@H]3CC[C@@H](NS(C)(=O)=O)CO3)CC2)C1)[C@@H]1CCOC1", "system_tested": "MV4-11 cells", "endpoint_value": "> 7.00"}
{"compound": "CC(C)N(CCC#N)C(=O)c1cc(F)ccc1Oc1cncnc1N1CC2(CCN(C[C@@H]3CC[C@@H](NS(=O)(=O)c4ccccc4)CO3)CC2)C1", "system_tested": "MV4-11 cells", "endpoint_value": "> 7.00"}
{"compound": "CC(C)N(CC(F)(F)F)C(=O)c1cc(F)ccc1Oc1cncnc1N1CC2(CCN(C[C@@H]3CC[C@@H](NS(=O)(=O)C(C)C)CO3)CC2)C1", "system_tested": "MV4-11 cells", "endpoint_value": "> 7.00"}
{"compound": "CCN(C(=O)c1cc(F)ccc1Oc1cncnc1N1CC2(CCN(C[C@@H]3CC[C@@H](NS(C)(=O)=O)CO3)CC2)C1)C(C)C", "system_tested": "MV4-11 cells", "endpoint_value": "> 7.00"}
{"compound": "CCS(=O)(=O)N[C@@H]1CC[C@@H](CN2CCC3(CC2)CN(c2ncncc2Oc2ccc(F)cc2C(=O)N(CC(F)(F)F)C(C)C)C3)OC1", "system_tested": "MV4-11 cells", "endpoint_value": "> 7.00"}
{"compound": "CCN(C(=O)c1cc(F)ccc1Oc1cncnc1N1CC2(CCN(C[C@@H]3CC[C@@H](NS(=O)(=O)NC4CC4)CO3)CC2)C1)C(C)C", "system_tested": "MV4-11 cells", "endpoint_value": "> 7.00"}
{"compound": "CCN(C(=O)c1cc(F)ccc1Oc1cncnc1N1CC2(CCN(C[C@@H]3CC[C@@H](NS(=O)(=O)c4ccc(OC)cc4)CO3)CC2)C1)C(C)C", "system_tested": "MV4-11 cells", "endpoint_value": "> 7.00"}
{"compound": "CCNS(=O)(=O)N[C@@H]1CC[C@@H](CN2CCC3(CC2)CN(c2ncnnc2Oc2ccc(F)cc2C(=O)N(CC(F)F)C(C)C)C3)OC1", "system_tested": "MV4-11 cells", "endpoint_value": "> 7.00"}
{"compound": "CCN(C(=O)c1cc(F)ccc1Oc1cncnc1N1CC2(CCN(C[C@@H]3CC[C@@H](NS(=O)(=O)CC4CC4)CO3)CC2)C1)C(C)C", "system_tested": "MV4-11 cells", "endpoint_value": "> 7.00"}
{"compound": "C[C@@H]1COC[C@@H](C)N1C(=O)c1cc(F)ccc1Oc1cncnc1N1CC2(CCN(C[C@@H]3CC[C@@H](NS(=O)(=O)c4cnn(C)c4)CO3)CC2)C1", "system_tested": "MV4-11 cells", "endpoint_value": "> 7.00"}
{"compound": "CC(C)N(CC(F)F)C(=O)c1cc(F)ccc1Oc1cncnc1N1CC2(CCN(C[C@@H]3CC[C@@H](NS(=O)(=O)N4CCOCC4)CO3)CC2)C1", "system_tested": "MV4-11 cells", "endpoint_value": "> 7.00"}
